tested on: KRT80 mRNA; assay: qPCR for KRT80 mRNA levels in A549 and NCI-H1568 cells; assay type: cell-based, human; details: Homo sapiens, A549; read-out: EC50 (KRT80 mRNA)
experimental readout: pEC50
# pEC50 is unitless: minus log10 of the molar concentration; print number only

Value wanted: pEC50 (KRT80 mRNA) of entry Cc1ncsc1-c1ccc(C(CCC(C)CCN2CCC(c3ccc4c(c3)n(C3CCCC3)c3nc(=O)c5c(Br)cccc5n43)CC2)NC(=O)C2CC(O)CN2C(=O)C(NC(=O)C2(F)CC2)C(C)(C)C)cc1 (stereo not shown)
8.08

----------
Assay: Solubility testing
Format: physicochemical
Details: pH 6.8
Procedure: Dilution into a 1:1 mixture of acetonitrile and water was used as reference. After 24 h, the incubations were filtrated, and the filtrate was analyzed by LC-UV.
experimental readout: Solubility pH 6.8

# count of solved cases: 7
{"columns": ["compound", "Solubility pH 6.8"],
 "data": [
  ["Cc1ncsc1-c1ccc([C@H](COC(C)CN2CCC(c3ccc4c(c3)n(C3CCCC3)c3nc(=O)c5c(Br)cccc5n43)CC2)NC(=O)[C@@H]2C[C@@H](O)CN2C(=O)[C@@H](NC(=O)C2(N(C)C)CC2)C(C)(C)C)cc1 (some centres unmarked)", "2.000 ug/mL"],
  ["CN1CCN(c2nc(=O)c3c(I)cccc3o2)CC1", ">97.000 ug/mL"],
  ["Cc1ncsc1-c1ccc(CNC(=O)[C@@H]2C[C@H](O)CN2C(=O)[C@@H](NC(=O)C2(F)CC2)C(C)(C)C)c(OCCN2CCC(c3ccc4c(c3)n(C3CCCC3)c3nc(=O)c5c(Br)cccc5n43)CC2)c1", "<1.000 ug/mL"],
  ["Cc1ncsc1-c1ccc(CNC(=O)[C@@H]2C[C@@H](O)CN2C(=O)[C@@H](NC(=O)C2(F)CC2)C(C)(C)C)c(OCCN2CCC(c3ccc4c(c3)n(C3CCCC3)c3nc(=O)c5c(Br)cccc5n43)CC2)c1", "<1.000 <1.000 <1.000 <1.000 <1.000 ug/mL"],
  ["CN1CCN(c2nc(=O)c3c(Cl)cccc3o2)CC1", ">71.000 ug/mL"],
  ["Cc1ncsc1-c1ccc([C@H](COCCCN2CCC(c3ccc4c(c3)n(C3CCCC3)c3nc(=O)c5c(Br)cccc5n43)CC2)NC(=O)[C@@H]2C[C@@H](O)CN2C(=O)[C@@H](NC(=O)C2(F)CC2)C(C)(C)C)cc1", "<1.000 <1.000 ug/mL"],
  ["Cc1ncsc1-c1ccc(CNC(=O)[C@@H]2C[C@@H](O)CN2C(=O)[C@@H](NC(=O)C2(F)CC2)C(C)(C)C)c(OCCCCN2CCC(c3ccc4c(c3)n(C3CCCC3)c3nc(=O)c5c(Br)cccc5n43)CC2)c1", "<1.000 ug/mL"]
]}

Here is another compound to look at.
Find the recorded Solubility pH 6.8 belonging to "Cc1ncsc1-c1ccc([C@H](COC(C)(C)CN2CCC(c3ccc4c(c3)n(C3CCCC3)c3nc(=O)c5c(Br)cccc5n43)CC2)NC(=O)[C@@H]2C[C@@H](O)CN2C(=O)[C@@H](NC(=O)C2(F)CC2)C(C)(C)C)cc1" and report it.
<1.000 <1.000 <1.000 <1.000 <1.000 ug/mL

----------
Listing: DC50 of selected compounds
Biological target: SMARCA4 (Homo sapiens, UniProt P51532)
Sequence (P51532 whole entry): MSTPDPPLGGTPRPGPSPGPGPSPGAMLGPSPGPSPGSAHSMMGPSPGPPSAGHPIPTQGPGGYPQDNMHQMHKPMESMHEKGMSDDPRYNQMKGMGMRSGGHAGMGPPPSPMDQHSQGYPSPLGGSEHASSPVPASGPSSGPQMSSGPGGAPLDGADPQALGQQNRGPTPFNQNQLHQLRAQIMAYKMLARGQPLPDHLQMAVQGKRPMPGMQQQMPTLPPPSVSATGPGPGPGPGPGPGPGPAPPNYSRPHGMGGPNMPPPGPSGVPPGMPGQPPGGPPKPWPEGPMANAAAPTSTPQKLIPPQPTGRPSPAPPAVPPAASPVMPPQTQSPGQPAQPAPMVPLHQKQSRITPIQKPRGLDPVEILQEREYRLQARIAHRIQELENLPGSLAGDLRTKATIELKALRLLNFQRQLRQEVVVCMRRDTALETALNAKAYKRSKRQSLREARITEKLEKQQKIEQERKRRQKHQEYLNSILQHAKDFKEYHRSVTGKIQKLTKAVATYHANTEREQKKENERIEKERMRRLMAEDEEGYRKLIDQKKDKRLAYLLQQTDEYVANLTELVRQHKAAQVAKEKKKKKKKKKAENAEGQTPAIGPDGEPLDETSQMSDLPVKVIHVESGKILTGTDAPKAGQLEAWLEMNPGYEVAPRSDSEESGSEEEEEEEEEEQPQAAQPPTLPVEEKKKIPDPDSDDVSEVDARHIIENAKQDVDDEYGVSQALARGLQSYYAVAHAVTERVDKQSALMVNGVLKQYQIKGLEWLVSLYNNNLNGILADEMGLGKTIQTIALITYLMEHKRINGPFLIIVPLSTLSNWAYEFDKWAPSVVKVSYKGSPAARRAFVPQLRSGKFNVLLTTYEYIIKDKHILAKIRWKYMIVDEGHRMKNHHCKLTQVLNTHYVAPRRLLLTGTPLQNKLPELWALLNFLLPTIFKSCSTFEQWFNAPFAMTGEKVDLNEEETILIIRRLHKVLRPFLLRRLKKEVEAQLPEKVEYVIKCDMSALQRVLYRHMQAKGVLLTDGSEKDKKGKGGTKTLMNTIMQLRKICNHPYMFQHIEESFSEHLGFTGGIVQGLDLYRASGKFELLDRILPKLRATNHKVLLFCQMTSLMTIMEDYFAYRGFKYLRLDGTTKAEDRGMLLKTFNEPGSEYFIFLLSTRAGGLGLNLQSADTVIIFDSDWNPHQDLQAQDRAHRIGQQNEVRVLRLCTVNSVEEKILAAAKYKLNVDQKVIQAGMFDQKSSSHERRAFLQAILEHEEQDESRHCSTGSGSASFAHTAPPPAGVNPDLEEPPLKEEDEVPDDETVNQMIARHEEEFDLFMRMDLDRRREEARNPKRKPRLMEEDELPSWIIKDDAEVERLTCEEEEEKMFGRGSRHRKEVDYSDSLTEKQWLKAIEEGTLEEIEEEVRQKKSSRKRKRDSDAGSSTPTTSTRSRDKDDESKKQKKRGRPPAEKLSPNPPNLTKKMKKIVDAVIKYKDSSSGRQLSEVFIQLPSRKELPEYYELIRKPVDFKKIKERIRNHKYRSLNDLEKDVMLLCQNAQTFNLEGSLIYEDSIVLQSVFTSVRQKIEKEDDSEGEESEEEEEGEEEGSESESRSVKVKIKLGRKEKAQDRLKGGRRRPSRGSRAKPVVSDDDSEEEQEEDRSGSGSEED
Test: SMARCA4 capillary electrophoresis protein assay in RKO cells
Assay type: cell-based
Parameters: endogenous in cells; host or cells: RKO, HCT116, LU99, HCC-364, HCT-15, HCC4006, SK-N-AS
Conditions: RKO (4 h); mean ± SD
Method: 130,000–200,000 cells were seeded in 24-well plates and incubated until settled down or overnight. Compounds were dissolved in DMSO and added to cells in indicated concentrations using a digital dispenser following an optional media change. Cells were incubated for 4 or 18 h as indicated. For SMARCA2/4 half-life determination, 150,000 or 200,000 cells were seeded in 24-well plates. […] Proteins were quantified with accompanying Compass Software. […]

{"columns": ["compound", "DC50"],
 "data": [
  ["Cc1ncsc1-c1ccc(CNC(=O)[C@@H]2C[C@@H](O)CN2C(=O)[C@@H](NC(=O)C2(F)CC2)C(C)(C)C)c(OCCN2CCC(c3ccc4c(c3)n(C3CCCC3)c3nc(=O)c5c(Br)cccc5n43)CC2)c1", "> 25 µM"],
  ["Cc1ncsc1-c1ccc([C@H](CCC(C)(C)CCN2CCC(c3ccc4c(c3)n(C3CCCC3)c3nc(=O)c5c(Br)cccc5n43)CC2)NC(=O)[C@@H]2C[C@@H](O)CN2C(=O)[C@@H](NC(=O)C2(F)CC2)C(C)(C)C)cc1", "> 25 µM"],
  ["O=c1nc2n(C3CCCC3)c3ccccc3n2c2cccc(Br)c12", "> 25 µM"],
  ["Cc1ncsc1-c1ccc(CNC(=O)[C@@H]2C[C@@H](O)CN2C(=O)[C@@H](NC(=O)C2(F)CC2)C(C)(C)C)c(OCCCCN2CCC(c3ccc4c(c3)n(C3CCCC3)c3nc(=O)c5c(Br)cccc5n43)CC2)c1", "> 25 µM"],
  ["CN1CCN(c2nc(=O)c3c(Br)cccc3o2)CC1", "> 25 µM"],
  ["Cc1ncsc1-c1ccc([C@H](COC(C)CN2CCC(c3ccc4c(c3)n(C3CCCC3)c3nc(=O)c5c(Br)cccc5n43)CC2)NC(=O)[C@@H]2C[C@@H](O)CN2C(=O)[C@@H](NC(=O)C2(F)CC2)C(C)(C)C)cc1 (stereo partly shown)", "> 25 µM"]
]}

Here is another compound to look at.
Value wanted: DC50 (SMARCA4 (Homo sapiens, UniProt P51532)) of entry Cc1ncsc1-c1ccc([C@H](COC(C)CN2CCC(c3ccc4c(c3)n(C3CCCC3)c3nc(=O)c5c(Br)cccc5n43)CC2)NC(=O)[C@@H]2C[C@@H](O)CN2C(=O)[C@@H](NC(=O)C2(N(C)C)CC2)C(C)(C)C)cc1 (stereo partly shown)
0.083 µM

----------
test system: VCB: PROTAC: SMARCA4^BD ternary complex; experiment: TR-FRET ternary complex affinity and cooperativity, SMARCA4; assay type: binding, human; settings: ratio TR-FRET EC50 / TR-FRET EC50 +VCB measured in the same run, SMARCA4BD
Listing: cooperativity α (SMARCA4BD) of selected compounds
Just the number.

# count of solved cases: 3
{"columns": ["smiles repr", "cooperativity α (SMARCA4BD)"],
 "data": [
  ["Cc1ncsc1-c1ccc([C@H](CCC(C)(C)CCN2CCC(c3ccc4c(c3)n(C3CCCC3)c3nc(=O)c5c(Br)cccc5n43)CC2)NC(=O)[C@@H]2C[C@@H](O)CN2C(=O)[C@@H](NC(=O)C2(F)CC2)C(C)(C)C)cc1", 4.3],
  ["Cc1ncsc1-c1ccc([C@H](COC(C)(C)CN2CCC(c3ccc4c(c3)n(C3CCCC3)c3nc(=O)c5c(Br)cccc5n43)CC2)NC(=O)[C@@H]2C[C@@H](O)CN2C(=O)[C@@H](NC(=O)C2(F)CC2)C(C)(C)C)cc1", 3.2],
  ["Cc1ncsc1-c1ccc([C@H](CC[C@H](C)CCN2CCC(c3ccc4c(c3)n(C3CCCC3)c3nc(=O)c5c(Br)cccc5n43)CC2)NC(=O)[C@@H]2C[C@H](O)CN2C(=O)[C@@H](NC(=O)C2(F)CC2)C(C)(C)C)cc1", 0.9]
]}

Find the recorded cooperativity α (SMARCA4BD) belonging to "Cc1ncsc1-c1ccc(CNC(=O)[C@@H]2C[C@@H](O)CN2C(=O)[C@@H](NC(=O)C2(F)CC2)C(C)(C)C)c(OCCCCN2CCC(c3ccc4c(c3)n(C3CCCC3)c3nc(=O)c5c(Br)cccc5n43)CC2)c1" and report it.
0.9

----------
Molecular target: VCB: PROTAC: SMARCA4^BD ternary complex (Homo sapiens, UniProt P40337+P51532)
Sequence (P40337 54-213): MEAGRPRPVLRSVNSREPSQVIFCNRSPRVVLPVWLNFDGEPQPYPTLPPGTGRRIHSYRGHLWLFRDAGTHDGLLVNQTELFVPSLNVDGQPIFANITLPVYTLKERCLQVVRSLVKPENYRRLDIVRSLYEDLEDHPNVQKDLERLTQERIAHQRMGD
Sequence (Q15369 17-112 partner limits assumed): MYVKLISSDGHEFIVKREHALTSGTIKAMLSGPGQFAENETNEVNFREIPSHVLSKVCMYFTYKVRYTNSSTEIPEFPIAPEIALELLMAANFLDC
Sequence (Q15370 1-104 partner limits assumed): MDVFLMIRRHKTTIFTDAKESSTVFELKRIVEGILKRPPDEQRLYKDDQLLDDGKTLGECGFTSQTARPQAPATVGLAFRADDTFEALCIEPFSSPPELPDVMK
Sequence (P51532 1448-1569): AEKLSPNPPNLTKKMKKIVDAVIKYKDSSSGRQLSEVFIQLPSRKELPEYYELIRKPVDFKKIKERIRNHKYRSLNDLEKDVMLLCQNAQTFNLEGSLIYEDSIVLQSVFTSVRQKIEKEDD
Test: SPR ternary complex measurement, VCB immobilised, 10 µM SMARCA4^BD present
Assay type: binding
Design: P51532, residues 1448–1569 with additional N-terminal SM residues; His6 (TEV site) (N, cleaved yes); GST (TEV site) (N, cleaved yes); made in house; host or cells: SMARCA4^BD: Escherichia coli BL21(DE3)
Conditions: SPR, ternary complex with SMARCA4BD; mean ± SD
Description: SPR data were acquired on Biacore 8K or T200 instruments (Cytiva). Target proteins were immobilised at 25 °C on CM5 chips by amine coupling (EDC/NHS, Cytiva) in HBS-P+ running buffer (pH 7.4), containing 2 mM TCEP. […] The reference surface was subsequently deactivated using 1 M ethanolamine. […] Affinity and binding kinetic parameters were determined by global fitting using the 1:1 interaction model with a term for mass-transport included.
experimental readout: pKd
# pKd is unitless: minus log10 of the molar concentration; print number only

{"columns": ["molecule", "target", "pKd"],
 "data": [
  ["Cc1ncsc1-c1ccc(CNC(=O)[C@@H]2C[C@@H](O)CN2C(=O)[C@@H](NC(=O)C2(F)CC2)C(C)(C)C)c(OCCOCCOCCOCCN2CCC(c3ccc4c(c3)n(C3CCCC3)c3nc(=O)c5c(Br)cccc5n43)CC2)c1 [compound 22]", "VCB: PROTAC: SMARCA4^BD ternary complex (Homo sapiens, UniProt P40337+P51532)", 7.59],
  ["Cc1ncsc1-c1ccc([C@H](CCC(C)(C)CCN2CCC(c3ccc4c(c3)n(C3CCCC3)c3nc(=O)c5c(Br)cccc5n43)CC2)NC(=O)[C@@H]2C[C@@H](O)CN2C(=O)[C@@H](NC(=O)C2(F)CC2)C(C)(C)C)cc1 [compound 30]", "VCB: PROTAC: SMARCA4^BD ternary complex (Homo sapiens, UniProt P40337+P51532)", 7.35],
  ["Cc1ncsc1-c1ccc(C(CCC(C)CCN2CCC(c3ccc4c(c3)n(C3CCCC3)c3nc(=O)c5c(Br)cccc5n43)CC2)NC(=O)C2CC(O)CN2C(=O)C(NC(=O)C2(F)CC2)C(C)(C)C)cc1 (centres unmarked) [ACBI2]", "VCB: PROTAC: SMARCA4^BD ternary complex (Homo sapiens, UniProt P40337+P51532)", 7.62],
  ["Cc1ncsc1-c1ccc([C@H](COC(C)CN2CCC(c3ccc4c(c3)n(C3CCCC3)c3nc(=O)c5c(Br)cccc5n43)CC2)NC(=O)[C@@H]2C[C@@H](O)CN2C(=O)[C@@H](NC(=O)C2(F)CC2)C(C)(C)C)cc1 (some centres unmarked) [compound 9]", "VCB: PROTAC: SMARCA4^BD ternary complex (Homo sapiens, UniProt P40337+P51532)", 6.74]
]}

Here is another molecule to look at.
Value wanted: pKd (VCB: PROTAC: SMARCA4^BD ternary complex (Homo sapiens, UniProt P40337+P51532)) of entry Cc1ncsc1-c1ccc([C@H](CCCCN2CCC(c3ccc4c(c3)n(C3CCCC3)c3nc(=O)c5c(Br)cccc5n43)CC2)NC(=O)[C@@H]2C[C@@H](O)CN2C(=O)[C@@H](NC(=O)C2(F)CC2)C(C)(C)C)cc1 [compound 25]
7.85
